- Tested on: collagen induced arthritis (CIA) in DBA/1 mice
- ASSAY INFO: Collagen-induced mouse arthritis (CIA) model
- Assay type: in vivo
- TEST CONTEXT: 20 mg/kg subcutaneous from day 30 of modeling; CIA DBA/1 mice
Where no end group is shown, it is not given here.
MEASUREMENT LABEL: Left and right paw swelling (mm)
Supply the numeric figure in mm, leaving out any unit text.

Take a look at these entries with their results.
- SUBSTANCE: "mPEG-ALD10k-Arg-Gly-Ala-Asp-Arg-Ala-Gly-Gly-Gly-Gly-Arg-Gly-Asp ({mPEG‑ALD 10 kDa}-RGADRAGGGGRGD) [mPEG-ALD10k-HM-1]"
  Left and right paw swelling, mm: 0.70
- SUBSTANCE: "mPEG2-NHS10k-Arg-Gly-Ala-Asp-Arg-Ala-Gly-Gly-Gly-Gly-Arg-Gly-Asp ({mPEG2‑NHS 10 kDa}-RGADRAGGGGRGD) [mPEG2-NHS10k-HM-1]"
  Left and right paw swelling, mm: 0.74
- SUBSTANCE: "mPEG-bALD10k-Arg-Gly-Ala-Asp-Arg-Ala-Gly-Gly-Gly-Gly-Arg-Gly-Asp ({mPEG‑bALD 10 kDa}-RGADRAGGGGRGD) [mPEG-bALD10k-HM-1]"
  Left and right paw swelling, mm: 0.71

Now for a further substance.
Form field: reported Left and right paw swelling of mPEG-SC10k-Arg-Gly-Ala-Asp-Arg-Ala-Gly-Gly-Gly-Gly-Arg-Gly-Asp ({mPEG‑SC 10 kDa}-RGADRAGGGGRGD) [mPEG-SC10k-HM-1]
0.77

###

- System: xylene-induced ear swelling in Kunming mice
- ASSAY INFO: Xylene-induced ear swelling in mice
- Assay type: in vivo, mouse
- TEST CONTEXT: 20 mg/kg once daily for 5 days; ear swelling vs control
Where no end group is shown, it is not given here.
MEASUREMENT LABEL: Inhibition rate (%)
Supply the numeric figure in %, leaving out any unit text.

- SUBSTANCE: "mPEG-ALD5k-Arg-Gly-Ala-Asp-Arg-Ala-Gly-Gly-Gly-Gly-Arg-Gly-Asp ({mPEG‑ALD 5 kDa}-RGADRAGGGGRGD) [mPEG-ALD5k-HM-1]"
  Inhibition rate [%]: 32.10
- SUBSTANCE: "mPEG2-NHS5k-Arg-Gly-Ala-Asp-Arg-Ala-Gly-Gly-Gly-Gly-Arg-Gly-Asp ({mPEG2‑NHS 5 kDa}-RGADRAGGGGRGD) [mPEG2-NHS5k-HM-1]"
  Inhibition rate [%]: 30.23
- SUBSTANCE: "mPEG-bALD20k-Arg-Gly-Ala-Asp-Arg-Ala-Gly-Gly-Gly-Gly-Arg-Gly-Asp ({mPEG‑bALD 20 kDa}-RGADRAGGGGRGD) [mPEG-bALD20k-HM-1]"
  Inhibition rate [%]: 17.13
- SUBSTANCE: "mPEG2-NHS20k-Arg-Gly-Ala-Asp-Arg-Ala-Gly-Gly-Gly-Gly-Arg-Gly-Asp ({mPEG2‑NHS 20 kDa}-RGADRAGGGGRGD) [mPEG2-NHS20k-HM-1]"
  Inhibition rate [%]: 10.65
- SUBSTANCE: "mPEG-bALD5k-Arg-Gly-Ala-Asp-Arg-Ala-Gly-Gly-Gly-Gly-Arg-Gly-Asp ({mPEG‑bALD 5 kDa}-RGADRAGGGGRGD) [mPEG-bALD5k-HM-1]"
  Inhibition rate [%]: 31.08

Form field: reported Inhibition rate of mPEG-ALD10k-Arg-Gly-Ala-Asp-Arg-Ala-Gly-Gly-Gly-Gly-Arg-Gly-Asp ({mPEG‑ALD 10 kDa}-RGADRAGGGGRGD) [mPEG-ALD10k-HM-1]
23.67

Next: mPEG-bALD10k-Arg-Gly-Ala-Asp-Arg-Ala-Gly-Gly-Gly-Gly-Arg-Gly-Asp ({mPEG‑bALD 10 kDa}-RGADRAGGGGRGD) [mPEG-bALD10k-HM-1]
23.63

Next: mPEG-SC10k-Arg-Gly-Ala-Asp-Arg-Ala-Gly-Gly-Gly-Gly-Arg-Gly-Asp ({mPEG‑SC 10 kDa}-RGADRAGGGGRGD) [mPEG-SC10k-HM-1]
21.37

Next: mPEG-ALD20k-Arg-Gly-Ala-Asp-Arg-Ala-Gly-Gly-Gly-Gly-Arg-Gly-Asp ({mPEG‑ALD 20 kDa}-RGADRAGGGGRGD) [mPEG-ALD20k-HM-1]
20.10

Next: mPEG-SC20k-Arg-Gly-Ala-Asp-Arg-Ala-Gly-Gly-Gly-Gly-Arg-Gly-Asp ({mPEG‑SC 20 kDa}-RGADRAGGGGRGD) [mPEG-SC20k-HM-1]
12.36

Next: mPEG2-NHS10k-Arg-Gly-Ala-Asp-Arg-Ala-Gly-Gly-Gly-Gly-Arg-Gly-Asp ({mPEG2‑NHS 10 kDa}-RGADRAGGGGRGD) [mPEG2-NHS10k-HM-1]
23.57

Next: mPEG-SC5k-Arg-Gly-Ala-Asp-Arg-Ala-Gly-Gly-Gly-Gly-Arg-Gly-Asp ({mPEG‑SC 5 kDa}-RGADRAGGGGRGD) [mPEG-SC5k-HM-1]
32.10

###

- System: xylene-induced ear swelling in Kunming mice
- ASSAY INFO: Xylene-induced ear swelling in mice
- Assay type: in vivo, mouse
- TEST CONTEXT: 160 mg/kg once daily for 5 days; ear swelling vs control
- Experimental: Kunming mice were used. The saline group was used as the blank control group, the aspirin group (200 mg/kg) as the positive control group, and the mPEG-HM-1 administration group as the experimental group. Mice were administered once daily for 5 consecutive days. The blank control group was given an equal volume of physiological saline. […] Ear pieces were taken with a puncher, weighed, and the swelling degree and swelling rate were calculated. […]
Where no end group is shown, it is not given here.
MEASUREMENT LABEL: Inhibition rate (%)
Supply the numeric figure in %, leaving out any unit text.

Take a look at these entries with their results.
- SUBSTANCE: "mPEG2-NHS40k-Arg-Gly-Ala-Asp-Arg-Ala-Gly-Gly-Gly-Gly-Arg-Gly-Asp ({mPEG2‑NHS 40 kDa}-RGADRAGGGGRGD) [mPEG2-NHS40k-HM-1]"
  RESULT UNIT: "%"
  Inhibition rate: 32.26
- SUBSTANCE: "mPEG-SC40k-Arg-Gly-Ala-Asp-Arg-Ala-Gly-Gly-Gly-Gly-Arg-Gly-Asp ({mPEG‑SC 40 kDa}-RGADRAGGGGRGD) [mPEG-SC40k-HM-1]"
  RESULT UNIT: "%"
  Inhibition rate: 37.01
- SUBSTANCE: "mPEG-ALD40k-Arg-Gly-Ala-Asp-Arg-Ala-Gly-Gly-Gly-Gly-Arg-Gly-Asp ({mPEG‑ALD 40 kDa}-RGADRAGGGGRGD) [mPEG-ALD40k-HM-1]"
  RESULT UNIT: "%"
  Inhibition rate: 32.09

Now for a further substance.
For xylene-induced ear swelling in Kunming mice, provide Inhibition rate of mPEG-bALD40k-Arg-Gly-Ala-Asp-Arg-Ala-Gly-Gly-Gly-Gly-Arg-Gly-Asp ({mPEG‑bALD 40 kDa}-RGADRAGGGGRGD) [mPEG-bALD40k-HM-1] please.
33.09

###

- Test system: mouse spleen lymphocytes
- ASSAY INFO: ConA-stimulated mouse spleen lymphocyte proliferation (MTT)
- Assay type: cell-based
- TEST CONTEXT: 5 μg/mL, ConA 5 μg/mL, 48 h
Where no end group is shown, it is not given here.
Overview of recorded A570 nm/A630 nm for various substances

- SUBSTANCE: "mPEG-SC5k-Arg-Gly-Ala-Asp-Arg-Ala-Gly-Gly-Gly-Gly-Arg-Gly-Asp ({mPEG‑SC 5 kDa}-RGADRAGGGGRGD) [mPEG-SC5k-HM-1]"
  A570 nm/A630 nm: "0.6253 ± 0.0947"

Form field: reported A570 nm/A630 nm of mPEG-ALD5k-Arg-Gly-Ala-Asp-Arg-Ala-Gly-Gly-Gly-Gly-Arg-Gly-Asp ({mPEG‑ALD 5 kDa}-RGADRAGGGGRGD) [mPEG-ALD5k-HM-1]
0.6241 ± 0.0917

Next: mPEG2-NHS5k-Arg-Gly-Ala-Asp-Arg-Ala-Gly-Gly-Gly-Gly-Arg-Gly-Asp ({mPEG2‑NHS 5 kDa}-RGADRAGGGGRGD) [mPEG2-NHS5k-HM-1]
0.6304 ± 0.0983

Next: mPEG-bALD5k-Arg-Gly-Ala-Asp-Arg-Ala-Gly-Gly-Gly-Gly-Arg-Gly-Asp ({mPEG‑bALD 5 kDa}-RGADRAGGGGRGD) [mPEG-bALD5k-HM-1]
0.6257 ± 0.1022
